molecular target: UniProt P41595
Sequence (P41595 whole entry): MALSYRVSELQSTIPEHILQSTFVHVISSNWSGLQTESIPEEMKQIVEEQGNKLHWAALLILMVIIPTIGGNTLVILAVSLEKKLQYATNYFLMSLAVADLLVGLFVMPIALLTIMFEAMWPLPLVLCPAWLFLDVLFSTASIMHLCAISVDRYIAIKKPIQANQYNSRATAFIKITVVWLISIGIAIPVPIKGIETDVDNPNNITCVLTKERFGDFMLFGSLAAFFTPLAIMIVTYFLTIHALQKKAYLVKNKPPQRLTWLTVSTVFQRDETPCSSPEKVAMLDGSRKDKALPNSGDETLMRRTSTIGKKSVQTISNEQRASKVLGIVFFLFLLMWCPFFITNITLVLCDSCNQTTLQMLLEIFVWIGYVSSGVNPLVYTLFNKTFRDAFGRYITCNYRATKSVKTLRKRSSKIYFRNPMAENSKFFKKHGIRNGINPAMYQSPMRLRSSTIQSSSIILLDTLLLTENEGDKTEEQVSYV
parameter: pKi
Give bare numbers, as −log10 of the molar value.

compound="c1ccc(OC[C@@H]2CN(CCN3CCc4ccccc43)CCO2)cc1 [Compound 19s]" parameter=pKi test_value=5.84
compound="Cc1ccnc(C)c1OC[C@H]1CN(CCN2CCc3ccccc32)CCO1 [Compound 29r]" parameter=pKi test_value=5.88
compound="CC1Cc2ccccc2N1C(=O)CN1CCO[C@H](COc2cccc(Cl)c2)C1 (stereo partly drawn)" parameter=pKi test_value=6.36

Dear colleague, could you please provide pKi for the compounds listed below?
1. O=C(CN1CCO[C@H](COc2cccnc2)C1)N1CCc2ccccc21 [Compound 20s]
2. Clc1cncc(OC[C@H]2CN(CCN3CCc4ccccc43)CCO2)c1 [Compound 27r]
3. O=C(CN1CCO[C@H](COc2ccccc2)C1)N1CCc2ccccc21 [Compound 18s]
4. O=C(CN1CCO[C@H](COc2cccc(Cl)c2)C1)N1CCc2ccccc21 [Compound 22s]
5. O=C(CN1CCO[C@@H](COc2cccnc2)C1)N1CCc2ccccc21 [Compound 20r]

RESULT:
1. 5.12
2. 5.59
3. 5.19
4. 5.96
5. 5.06

Dear colleague, could you please provide pKi for the compounds listed below?
1. COc1cccc(OC[C@@H]2CN(CC(=O)N3CCc4ccccc43)CCO2)c1 [Compound 24s]
2. Cc1ncccc1OC[C@H]1CN(CCN2CCc3ccccc32)CCO1 [Compound 26r]

RESULT:
[5.78, 5.50]

Dear colleague, could you please provide pKi for the compounds listed below?
1. Cc1ccnc(OC[C@H]2CN(CCN3CCc4ccccc43)CCO2)c1 [Compound 17r]
2. CC1Cc2ccccc2N1C(=O)CN1CCO[C@@H](COc2cccc(Cl)c2)C1 (stereo partly drawn)
3. Cc1ccnc(OC[C@H]2CN(CC(=O)N3c4ccccc4CC3C)CCO2)c1 (stereo partly drawn)

RESULT:
1. 6.10
2. 6.48
3. 5.46

Dear colleague, could you please provide pKi for the compounds listed below?
1. c1ccc(OC[C@H]2CN(CCN3CCc4ccccc43)CCO2)nc1 [Compound 15r]
2. O=C(CN1CCO[C@@H](COc2cccc(Cl)c2)C1)N1CCc2ccccc21 [Compound 22r]

RESULT:
[6.22, 5.63]

###

Read-out record for 5HT1b receptor (Homo sapiens (Human), UniProt P28222): Ki
One number for each entry, in µM.

compound="O=C(CN1CCO[C@H](COc2cccc(Cl)c2)C1)N1CCc2ccccc21 [Compound 22s]" test_value=7.77

Now for the compound whose Ki we want.
Item: COc1cccc(OC[C@@H]2CN(CC(=O)N3CCc4ccccc43)CCO2)c1 [Compound 24s] | Ki: 4.83

###

molecular target: 5HT5 receptor (Homo sapiens (Human)); test: Secondary radioligand binding assay, 5HT5; design: key: “—” indicates that a binding interaction was not detected; details: average of at least two experiments;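 also: competitive radioligand displacement on membranes from transfected cell lines, incubated at room temperature in the dark, filter-retained radioactivity counted by liquid scintillation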
Sequence (P47898 whole entry): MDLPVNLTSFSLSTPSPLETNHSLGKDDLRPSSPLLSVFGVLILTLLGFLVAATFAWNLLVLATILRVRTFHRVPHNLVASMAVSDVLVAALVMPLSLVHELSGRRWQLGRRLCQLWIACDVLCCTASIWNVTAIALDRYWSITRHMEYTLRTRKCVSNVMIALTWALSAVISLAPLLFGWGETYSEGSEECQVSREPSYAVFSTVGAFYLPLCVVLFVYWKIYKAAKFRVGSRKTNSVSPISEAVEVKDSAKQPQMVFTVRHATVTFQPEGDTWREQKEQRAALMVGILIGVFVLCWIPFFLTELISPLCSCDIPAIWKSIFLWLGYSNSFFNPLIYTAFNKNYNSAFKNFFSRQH
parameter: Ki 5HT5

Record excerpt, results attached:
compound="Cc1ccc(OC[C@@H]2CN(CCN3CCc4ccccc43)CCO2)cn1 [Compound 28s]" target="5HT5 receptor (Homo sapiens (Human))" parameter="Ki 5HT5" test_value=—
compound="Clc1cccc(OC[C@@H]2CN(CCN3CCc4ccccc43)CCO2)c1 [Compound 23s]" target="5HT5 receptor (Homo sapiens (Human))" parameter="Ki 5HT5" test_value=—
compound="COc1cccc(OC[C@@H]2CN(CCN3CCc4ccccc43)CCO2)c1 [Compound 25s]" target="5HT5 receptor (Homo sapiens (Human))" parameter="Ki 5HT5" test_value=—
compound="Cc1ncccc1OC[C@@H]1CN(CC(=O)N2c3ccccc3CC2C)CCO1.Cl (some centres unmarked)" target="5HT5 receptor (Homo sapiens (Human))" parameter="Ki 5HT5" test_value=—

Now for the compound whose Ki 5HT5 we want.
Item: c1ccc(OC[C@@H]2CN(CCN3CCc4ccccc43)CCO2)cc1 [Compound 19s] | Ki 5HT5: —
